Assay: self-splicing fitness, log relative to wild type (ln ratio); higher = more splicing; Tetrahymena group I intron in knt gene, E. coli kanamycin selection, DiMSum; sequences stand for … in CUCUCU…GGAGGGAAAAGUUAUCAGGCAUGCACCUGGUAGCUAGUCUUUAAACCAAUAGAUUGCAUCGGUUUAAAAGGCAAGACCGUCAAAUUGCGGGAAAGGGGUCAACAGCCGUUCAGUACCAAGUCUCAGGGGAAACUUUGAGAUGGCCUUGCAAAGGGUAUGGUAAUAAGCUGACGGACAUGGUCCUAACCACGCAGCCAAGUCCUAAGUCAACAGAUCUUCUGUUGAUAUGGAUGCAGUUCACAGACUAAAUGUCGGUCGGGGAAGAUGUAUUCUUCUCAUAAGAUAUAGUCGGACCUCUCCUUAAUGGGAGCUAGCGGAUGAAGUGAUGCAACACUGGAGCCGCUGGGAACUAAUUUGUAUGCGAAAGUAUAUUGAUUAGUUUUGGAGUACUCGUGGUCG;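 further: selection with 25 µg/mL kanamycin versus none on LB agar overnight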
Settings: 37 °C
// reported self-splicing fitness (ln) for each item listed
Please respond with just the number, no unit label.

PRIMARY_SEQUENCE | self-splicing fitness (ln)
CUCCAGCAAUAUUACGUCGA | -2.73
AUUCAGCAAUAUUACGCUAA | -0.0329
UUGCAGCAAUAUUACGGGAA | 0.101
CACUAGCAAUAUUACGUCUG | 0.214
GCUAAGCAAUAUUACGACCA | -1.34

Fill in the blank: the reported self-splicing fitness (ln) of ACCUAGCAAUAUUACGUACC is ____.
-0.156

Fill in the blank: the reported self-splicing fitness (ln) of GGCGAGCAAUAUUACGAUUU is ____.
-0.569

Fill in the blank: the reported self-splicing fitness (ln) of AACUAGCAAUAUUACGGUAC is ____.
-1.9

Fill in the blank: the reported self-splicing fitness (ln) of CUGAAGCAAUAUUACGAACA is ____.
-2.11

---

Assay: self-splicing fitness, log relative to wild type (ln ratio); higher = more splicing; Tetrahymena group I intron in knt gene, E. coli kanamycin selection, DiMSum; sequences stand for … in CUCUCU…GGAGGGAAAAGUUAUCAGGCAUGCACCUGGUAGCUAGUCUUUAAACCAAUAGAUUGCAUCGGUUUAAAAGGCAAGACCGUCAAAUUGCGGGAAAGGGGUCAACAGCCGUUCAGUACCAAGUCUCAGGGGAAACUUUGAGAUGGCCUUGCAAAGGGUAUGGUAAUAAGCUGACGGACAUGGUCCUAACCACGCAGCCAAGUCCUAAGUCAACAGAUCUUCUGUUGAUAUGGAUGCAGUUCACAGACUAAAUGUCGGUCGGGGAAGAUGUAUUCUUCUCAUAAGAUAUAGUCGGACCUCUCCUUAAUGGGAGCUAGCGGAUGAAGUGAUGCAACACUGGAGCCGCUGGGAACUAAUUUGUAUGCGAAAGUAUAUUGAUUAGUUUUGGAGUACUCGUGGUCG
Conditions: 37 °C
Hi all, reminder that labels come from self-splicing fitness (ln), split as class A = under -2, class B = from -2 up to -0.7, class C = -0.7 and over

Check out these entries, answers already filled in.
PRIMARY_SEQUENCE | ASSIGNED_CATEGORY
GAUAAGCAAUAUUACGUAAG | class B
GACCAGCAAUAUUACGCUGG | class A
ACUAAGCAAUAUUACGAUGU | class B
UUAGAGCAAUAUUACGUAUA | class B
GUUCAGCAAUAUUACGAUUU | class C
UCUAAGCAAUAUUACGCACA | class C
CGCUAGCAAUAUUACGUCAC | class A
CAACAGCAAUAUUACGAGUU | class A

# bin lookup: classify GCCCAGCAAUAUUACGGUUU by its self-splicing fitness (ln)
class C

# bin lookup: classify GCUGAGCAAUAUUACGGCAA by its self-splicing fitness (ln)
class A

# bin lookup: classify GGUAAGCAAUAUUACGCCGC by its self-splicing fitness (ln)
class B

# bin lookup: classify AUUCAGCAAUAUUACGCACU by its self-splicing fitness (ln)
class C

# bin lookup: classify CUUAAGCAAUAUUACGGGCU by its self-splicing fitness (ln)
class A

# bin lookup: classify UUAUAGCAAUAUUACGCUAG by its self-splicing fitness (ln)
class C

# bin lookup: classify CGACAGCAAUAUUACGAAAC by its self-splicing fitness (ln)
class A

# bin lookup: classify CUAAAGCAAUAUUACGUAAU by its self-splicing fitness (ln)
class A

---

Assay: self-splicing fitness, log relative to wild type (ln ratio); higher = more splicing; Tetrahymena group I intron in knt gene, E. coli kanamycin selection, DiMSum; sequences stand for … in CUCUCU…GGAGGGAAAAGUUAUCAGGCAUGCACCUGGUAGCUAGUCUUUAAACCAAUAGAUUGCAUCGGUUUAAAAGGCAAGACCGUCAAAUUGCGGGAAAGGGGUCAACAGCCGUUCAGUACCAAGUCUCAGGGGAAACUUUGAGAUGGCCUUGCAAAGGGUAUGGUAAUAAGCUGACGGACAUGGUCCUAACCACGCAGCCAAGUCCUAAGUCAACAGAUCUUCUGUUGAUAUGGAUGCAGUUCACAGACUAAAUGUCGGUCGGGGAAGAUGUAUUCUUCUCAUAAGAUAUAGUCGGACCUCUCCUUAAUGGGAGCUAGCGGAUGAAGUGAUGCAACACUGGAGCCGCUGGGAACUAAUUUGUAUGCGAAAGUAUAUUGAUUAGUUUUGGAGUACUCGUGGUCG
Conditions: 30 °C
// reported self-splicing fitness (ln) for each item listed
Please respond with just the number, no unit label.

Observe how each entry below is paired with its result.
PRIMARY_SEQUENCE | self-splicing fitness (ln)
GGAUAGCAAUAUUACGUAAC | -1.66
CUCUAGCAAUAUUACGGUCG | -1.51
UCCGAGCAAUAUUACGUGUU | -2.75
CAUAAGCAAUAUUACGGCAC | -2.85

Fill in the blank: the reported self-splicing fitness (ln) of GGGCAGCAAUAUUACGACGU is ____.
-0.265

Fill in the blank: the reported self-splicing fitness (ln) of CCAAAGCAAUAUUACGGCAC is ____.
-4.07

Fill in the blank: the reported self-splicing fitness (ln) of UUUCAGCAAUAUUACGCAUA is ____.
-2.13

Fill in the blank: the reported self-splicing fitness (ln) of GCCUAGCAAUAUUACGACGC is ____.
-0.302

---

// reported self-splicing fitness (ln) for each item listed
Experiment: self-splicing fitness, log relative to wild type (ln ratio); higher = more splicing; Tetrahymena group I intron in knt gene, E. coli kanamycin selection, DiMSum; sequences stand for … in CUCUCU…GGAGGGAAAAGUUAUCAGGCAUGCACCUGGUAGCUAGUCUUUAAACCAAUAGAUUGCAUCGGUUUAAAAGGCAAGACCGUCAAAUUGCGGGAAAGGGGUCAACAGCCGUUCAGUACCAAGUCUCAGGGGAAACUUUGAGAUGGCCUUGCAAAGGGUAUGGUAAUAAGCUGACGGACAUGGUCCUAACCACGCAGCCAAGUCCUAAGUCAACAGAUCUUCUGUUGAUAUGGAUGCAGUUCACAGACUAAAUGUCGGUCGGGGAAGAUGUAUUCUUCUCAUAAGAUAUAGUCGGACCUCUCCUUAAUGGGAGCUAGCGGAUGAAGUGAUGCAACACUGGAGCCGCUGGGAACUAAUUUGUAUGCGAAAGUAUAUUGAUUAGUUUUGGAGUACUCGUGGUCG
Settings: 30 °C
Please respond with just the number, no unit label.

Observe how each entry below is paired with its result.
PRIMARY_SEQUENCE | self-splicing fitness (ln)
CAAGAGCAAUAUUACGGCAC | -4.28
GGGGAGCAAUAUUACGCCAC | -3.28
CCUUAGCAAUAUUACGAUAG | -2.77
CGGUAGCAAUAUUACGAAUA | -2.04
CCGAAGCAAUAUUACGCCCC | -1.26
AGGAAGCAAUAUUACGGGAA | -2.67

Fill in the blank: the reported self-splicing fitness (ln) of UUGCAGCAAUAUUACGCGUU is ____.
-2.41

Fill in the blank: the reported self-splicing fitness (ln) of CGUCAGCAAUAUUACGUGAC is ____.
-3.29

Fill in the blank: the reported self-splicing fitness (ln) of GCCAAGCAAUAUUACGGAUG is ____.
-1.24

Fill in the blank: the reported self-splicing fitness (ln) of UACAAGCAAUAUUACGCGAU is ____.
-3.74

Fill in the blank: the reported self-splicing fitness (ln) of AAAUAGCAAUAUUACGGGGU is ____.
-3.27

Fill in the blank: the reported self-splicing fitness (ln) of GAGCAGCAAUAUUACGGCCA is ____.
-0.255

Fill in the blank: the reported self-splicing fitness (ln) of GUACAGCAAUAUUACGUCCU is ____.
-1.4

Fill in the blank: the reported self-splicing fitness (ln) of GCGCAGCAAUAUUACGUCAG is ____.
-2.03

Fill in the blank: the reported self-splicing fitness (ln) of CUCUAGCAAUAUUACGCCCA is ____.
-2.25

Fill in the blank: the reported self-splicing fitness (ln) of UUGCAGCAAUAUUACGUAGG is ____.
-0.924
